- subject_of_test: Sodium-dependent dopamine transporter (Homo sapiens)
- condition_parameters: Compound concentration 10 µM; call rule not given here
Outcomes you can answer with include only these: active, inactive

chem_smiles | label_class
COC1CCN(c2cccc(-c3cc(NC(C)=O)nc(-n4nc(C)cc4C)n3)n2)CC1 | inactive

## Input Could you kindly confirm the outcome this assay logged for "CC[C@@H]1CN2C(=O)N(C)c3nc(-c4ccccc4)[nH]c3C2=N1" ?
## Output inactive

## Input Could you kindly confirm the outcome this assay logged for "C[C@H](NC[C@H](O)CP(=O)(O)CC1CCCCC1)c1ccc(Cl)c(Cl)c1" ?
## Output active

## Input Could you kindly confirm the outcome this assay logged for "NC(=O)[C@@H]1CCCN1C(=O)[C@H](Cc1c[nH]cn1)NC(=O)[C@@H]1CCC(=O)N1" ?
## Output inactive

## Input Could you kindly confirm the outcome this assay logged for "COc1cccc([C@H](O)C2CCN(CCc3ccc(F)cc3)CC2)c1OC" ?
## Output inactive

* * *

- subject_of_test: Sodium-dependent dopamine transporter (Homo sapiens) (UniProt Q01959)
- Sequence (Q01959 whole entry): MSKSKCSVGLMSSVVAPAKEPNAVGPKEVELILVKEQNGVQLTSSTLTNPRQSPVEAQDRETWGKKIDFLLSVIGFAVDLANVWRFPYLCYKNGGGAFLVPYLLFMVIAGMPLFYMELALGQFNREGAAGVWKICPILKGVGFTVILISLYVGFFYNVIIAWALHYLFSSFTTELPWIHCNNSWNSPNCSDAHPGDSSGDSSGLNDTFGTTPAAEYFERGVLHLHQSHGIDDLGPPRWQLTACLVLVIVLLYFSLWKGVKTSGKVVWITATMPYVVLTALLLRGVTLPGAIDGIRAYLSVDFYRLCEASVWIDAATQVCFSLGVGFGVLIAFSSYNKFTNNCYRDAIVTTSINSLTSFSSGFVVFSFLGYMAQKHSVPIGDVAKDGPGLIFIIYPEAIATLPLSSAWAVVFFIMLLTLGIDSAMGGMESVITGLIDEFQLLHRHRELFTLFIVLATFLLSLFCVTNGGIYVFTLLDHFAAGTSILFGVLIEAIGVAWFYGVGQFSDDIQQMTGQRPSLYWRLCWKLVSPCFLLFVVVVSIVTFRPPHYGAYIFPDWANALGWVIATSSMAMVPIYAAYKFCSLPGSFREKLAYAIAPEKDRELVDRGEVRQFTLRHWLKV
- condition_parameters: Compound concentration 10 µM
# label = class 1 if inhibition >= 30% else class 0

Below, 8 molecules whose answers are already recorded.
molecule | label_class
O=C(O)C1CN(Cc2ccc(OCc3ccc(Cl)c(Cl)c3)cc2)C1 | class 1
Cc1cc([C@@H](C)Nc2cccc(-c3cc(C)c(C(=O)N[C@@H](C)C(=O)O)c(C)c3)c2)ccc1Cl | class 1
O=C(Cc1ccccc1)Nc1nc2ccc(Cl)cc2c2nc(-c3ccco3)nn12 | class 0
S=C(NCCCc1c[nH]cn1)NCCCN(Cc1ccc(Cl)c(Cl)c1)c1ccc(Br)cn1 | class 1
c1ccc(N2CCN(Cc3nc4ccccc4[nH]3)CC2)nc1 | class 0
CO[C@@H]1COCC[C@@H]1N[C@@H]1CC[C@@](C(=O)N2CCc3ncc(C(F)(F)F)cc3C2)(C(C)C)C1 | class 0
N#Cc1cccc(C(=O)Nc2cc(-c3ccccc3)nn2-c2ccccc2)c1 | class 0
CCC(=O)NCC[C@@H]1CCc2ccc3c(c21)CCO3 | class 0

Next molecule, please.
## Input # bool: inhibition of "CCN(CC)CCCCC1CCN(CC(=O)N2c3ccccc3C(=O)Nc3cccnc32)CC1" >= 30%
## Output class 0

* * *

- subject_of_test: Alpha-2A adrenergic receptor (Homo sapiens)
- condition_parameters: Compound concentration 10 µM
- Description: PDSP Primary Binding target: ADRA2A - Compounds are tested at 10 uM concentration, plate are incubated at room temperature in the dark for 90 minutes. Reaction are stopped by vacuum filtration onto 0.3% polyethyleneimine soaked filter mats using Filtermate harvester. Scintilation cocktail is then melted onto microwave-dried filters on a hot plate and the radio activity is counted in Microbia counter.
param class (str): category from inhibition; see ranges class 1 (below 10%), class 2 (10% to below 50%), class 3 (50% or more)

Below, 5 compounds whose answers are already recorded.
compound | label_class
COc1ccc(NS(=O)(=O)c2sc3ccc(Cl)cc3c2C)cc1N1CCNCC1 | class 3
CCC(=O)NCC[C@@H]1CCc2ccc3c(c21)CCO3 | class 2
Nc1nc2c(c(N3CCNCC3)n1)CCC1=C2[C@@H]2CCCC[C@@H]2O1 | class 1
Cc1cc(C(=O)N2Cc3cnn(C)c3Nc3ccccc32)ccc1CNC(=O)N1CCC[C@H]1C(=S)N1CCCN(C)CC1 | class 2
O=c1ccc2ccc(OCCCCN3CCN(c4cccc5sccc45)CC3)cc2[nH]1 | class 3

## Input Given CN(C(=O)Cc1ccc(Cl)c(Cl)c1)C(CN1CCCC1)c1cccc(OCC(=O)O)c1 (configuration not stated) , name the class its inhibition places it in.
## Output class 2

## Input Given "N#Cc1ccc2[nH]cc(CCCCN3CCN(c4ccc5oc(C(N)=O)cc5c4)CC3)c2c1" , name the class its inhibition places it in.
## Output class 3

## Input Given "CC(C)[C@H](CO)Nc1nc(Nc2cccc(Cl)c2)c2ncn(C(C)C)c2n1" , name the class its inhibition places it in.
## Output class 1

## Input Given "CCCCCCCCCCCCC/C=C/[C@@H](O)[C@@H](N)COP(=O)(O)O" , name the class its inhibition places it in.
## Output class 1

## Input Given "Cc1ccc2c(c1)c1c(n2CCc2ccc(C)nc2)CCN(C)C1" , name the class its inhibition places it in.
## Output class 3

## Input Given "S=C(NCCCc1c[nH]cn1)NCCCN(Cc1ccc(Cl)c(Cl)c1)c1ccc(Br)cn1" , name the class its inhibition places it in.
## Output class 3

## Input Given "COc1cccc([C@H](O)C2CCN(CCc3ccc(F)cc3)CC2)c1OC" , name the class its inhibition places it in.
## Output class 2

## Input Given "CNC[C@H](O)c1cccc(O)c1" , name the class its inhibition places it in.
## Output class 3

## Input Given "c1nc(CC2CCNCC2)c[nH]1" , name the class its inhibition places it in.
## Output class 2

## Input Given "COc1cc2nc(N3CCN(C(=O)c4ccco4)CC3)nc(N)c2cc1OC" , name the class its inhibition places it in.
## Output class 2

## Input Given "Cc1nn(C)c(C)c1-c1cccc2c1CC[C@H](N(C)C)C2" , name the class its inhibition places it in.
## Output class 3

## Input Given "Oc1ccc2c3c1O[C@H]1c4[nH]c5c(c4C[C@@]4(O)[C@@H](C2)N(CC2CC2)CC[C@]314)C[C@@]1(O)[C@H]2Cc3ccc(O)c4c3[C@@]1(CCN2CC1CC1)[C@H]5O4" , name the class its inhibition places it in.
## Output class 1
